- target.of.assay: human CRTH2 (Homo sapiens, UniProt Q9Y5Y4)
- Sequence (Q9Y5Y4 whole entry): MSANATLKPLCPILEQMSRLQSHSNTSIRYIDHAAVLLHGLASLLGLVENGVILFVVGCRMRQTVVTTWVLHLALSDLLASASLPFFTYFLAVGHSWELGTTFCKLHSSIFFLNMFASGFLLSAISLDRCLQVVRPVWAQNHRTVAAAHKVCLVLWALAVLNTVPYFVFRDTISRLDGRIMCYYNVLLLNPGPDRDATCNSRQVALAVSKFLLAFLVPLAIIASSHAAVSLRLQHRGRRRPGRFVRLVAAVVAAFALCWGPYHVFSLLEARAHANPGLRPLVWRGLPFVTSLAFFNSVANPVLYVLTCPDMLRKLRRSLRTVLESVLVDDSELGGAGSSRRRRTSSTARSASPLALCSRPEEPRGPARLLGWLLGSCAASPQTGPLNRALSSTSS
- assay.info: Human CRTH2 Receptor Binding Assay (whole cell, [3H]ramatroban competition)
- conditions.used: CHO-K1 cells expressing human CRTH2 and G-alpha16; 20 nM [3H]ramatroban; 1 hour, room temperature
measure: pIC50
Would you please state pIC50, meaning minus log10 of the concentration in mol/L, as a bare number?

CN([C@@H]1CCCc2c1cnn2CC(=O)O)S(=O)(=O)c1ccc(Oc2ccc(F)cc2Cl)c(Cl)c1 [Example 9-16a] ... 8.10
O=C(O)Cn1ncc2c1CCCC2NS(=O)(=O)c1ccc(Oc2cccc(Cl)c2)cc1 (stereo not drawn) ... 6.69

I am curious: what pIC50 value has been reported for CN([C@@H]1CCCc2c1cnn2CC(=O)O)S(=O)(=O)c1ccc(Oc2ccc(F)cc2)c(Br)c1 [Example 9-40a] ?
8.10
